Test system: SNB-78 CNS
testName: NCI tumour cell line growth inhibition, 48 h
Listed below: TGI values for each entry.

compound: C=CCONC(=O)c1ccc(Cl)cc1
TGI: > 100 µM

compound: C=C1C(=O)OC2CC3(C)C=CC(=O)C(=C)C3CC12 (configuration not stated)
TGI: 14 µM

compound: O=C(CC1Sc2ccccc2NC1=O)Nc1cc(Cl)ccc1Cl (configuration not stated)
TGI: > 100 µM

compound: CC1CC2C(=O)NC(=O)C2c2[nH]c3ccccc3c21 (configuration not stated)
TGI: > 100 µM

compound: CCOC(=O)C=C1CCN(C(=O)c2ccccc2)CC1
TGI: > 100 µM

compound: CC#COP(=O)(OCC)OCC
TGI: > 100 µM

compound: Cc1c2ccncc2cc2c1sc1ccncc12
TGI: 40.9 µM
